- Test system: Streptococcus sp.
- Run Description: in vitro antibacterial evaluation, MIC by broth dilution
- Type: cell-based
- Measurement Conditions: broth dilution, 18 hours at 35° C.
- From the text: Methods for in vitro Antibacterial Evaluation (Table 1) […]
Quantity Kind: MIC Streptococcus pneumoniae (ATCC 6301)

{"Molecule": "CC(c1ccccc1)C1NC(=O)CNC(=O)C(CO)NC(=O)C(C(O)C2CNC(=N)N2C2OC(CO)C(O)C(O)C2O)NC(=O)C(C(O)C2CNC(=N)N2)NC(=O)C(Cc2ccc(OC3OC(CO)C(OC4OC(CO)C(O)C(O)C4OCc4ccc(OCc5ccccc5)cc4)C(O)C3O)cc2)NC1=O (centres unmarked) [Example 231b]", "Value Observed": "0.25 to 2 µg/mL"}
{"Molecule": "N=C1NCC(C(O)C2NC(=O)C(CC3CCC(OC4OC(CO)C(OC5OC6COC7(OC6C(O)C5O)C5CC6CC(C5)CC7C6)C(O)C4O)CC3)NC(=O)C(CC3CCCCC3)NC(=O)CNC(=O)C(CO)NC(=O)C(C(O)C3CNC(=N)N3C3OC(CO)C(O)C(O)C3O)NC2=O)N1 (single isomer, unassigned)", "Value Observed": "64 µg/mL"}

---

- System: Staphylococcus sp.
- Run Description: in vitro antibacterial evaluation, MIC by broth dilution
- Format: cell-based
- Measurement Conditions: broth dilution, 18 hours at 35° C.
- From the text: Methods for in vitro Antibacterial Evaluation (Table 1) […]
Numbered stars: 1 amine (or outer) side, 2 acyl side, 3 side chain; on linkers, the order of the positions; unused ones are H or OH. Square brackets hold non-standard residues; d marks the D form. Peptide text beside a SMILES is read from it. ξ: configuration not given here. X1 = N=C1NCC(C(O)C(N[*:1])C(=O)[*:2])N1C1OC(CO)C(O)C(O)C1O; ξEnduracididine(βξ-OH,4'ξ) = N=C1NCC(C(O)C(N)C(=O)O)N1

{"Molecule": "CC(c1ccccc1)C1NC(=O)CNC(=O)C(CO)NC(=O)C(C(O)C2CNC(=N)N2C2OC(CO)C(O)C(O)C2O)NC(=O)C(C(O)C2CNC(=N)N2)NC(=O)C(Cc2ccc(OC3OC(CO)C(OC4OC5COC(CC(C)(C)C)OC5C(O)C4O)C(O)C3O)cc2)NC1=O (stereo not shown)", "Relation Qualifier": "=", "MIC Staphylococcus aureus (GC 4544) (µg/mL)": 2}
{"Molecule": "CC(C)CC(=O)OC1C(OC2C(CO)OC(Oc3ccc(CC4NC(=O)C(C(C)c5ccc(F)cc5)NC(=O)CNC(=O)C(CO)NC(=O)C(C(O)C5CNC(=N)N5C5OC(CO)C(O)C(O)C5O)NC(=O)C(C(O)C5CNC(=N)N5)NC4=O)cc3)C(O)C2O)OC(CO)C(O)C1O (stereo not shown) [Example 261b]", "Relation Qualifier": "=", "MIC Staphylococcus aureus (GC 4544) (µg/mL)": 8}
{"Molecule": "N=C1NCC(C(O)C2NC(=O)C(Cc3ccc(O)cc3)NC(=O)C(Cc3ccccc3)NC(=O)CNC(=O)C(CO)NC(=O)C(C(O)C3CNC(=N)N3C3OC(CO)C(O)C(O)C3O)NC2=O)N1 (stereo not drawn) [Example 279a] (cyclo(GFY[ξEnduracididine(βξ-OH,4'ξ)][X1]S); configuration not given here)", "Relation Qualifier": ">", "MIC Staphylococcus aureus (GC 4544) (µg/mL)": 64}
{"Molecule": "CC(c1ccccc1)C1NC(=O)CNC(=O)C(CO)NC(=O)C(C(O)C2CNC(=N)N2C2OC(CO)C(O)C(O)C2O)NC(=O)C(C(O)C2CNC(=N)N2)NC(=O)C(Cc2ccc(OC3OC(CO)C(OC4OC(CO)C(O)C5OC(c6ccccc6)OC45)C(O)C3O)cc2)NC1=O (single isomer, unassigned) [Example 104b]", "Relation Qualifier": "=", "MIC Staphylococcus aureus (GC 4544) (µg/mL)": 0.5}

Where do the numbers come from? From patent US6914045B2.
